assay: activity coefficient (dimensionless); of the first substance listed, at infinite dilution; xn = mol fraction of the nth substance listed; conditions: 343.15 K; 101.3 kPa; Liquid; Chromatography; x1 = 0
# activity coefficient annotations

[[record]]
compound = "CCCCCCCC [octane] + COP(=O)([O-])OC.Cn1cc[n+](C)c1"
measured_endpoint = "activity coefficient"
measured_result = 285

[[record]]
compound = "CCCCCCCCC [nonane] + COP(=O)([O-])OC.Cn1cc[n+](C)c1"
measured_endpoint = "activity coefficient"
measured_result = 351

[[record]]
compound = "CCCCC [pentane] + COP(=O)([O-])OC.Cn1cc[n+](C)c1"
measured_endpoint = "activity coefficient"
measured_result = 201

[[record]]
compound = "CCCCCC [hexane] + CCn1cc[n+](C)c1.COP(=O)([O-])OC"
measured_endpoint = "activity coefficient"
measured_result = 87.6

[[record]]
compound = "CCCCCCC [heptane] + CCn1cc[n+](C)c1.COP(=O)([O-])OC"
measured_endpoint = "activity coefficient"
measured_result = 124

[[record]]
compound = "Cc1cccc(C)c1 [1,3-dimethylbenzene] + CCn1cc[n+](C)c1.COP(=O)([O-])OC"
measured_endpoint = "activity coefficient"
measured_result = 10.8

[[record]]
compound = "Cc1ccccc1 [toluene] + CCn1cc[n+](C)c1.COP(=O)([O-])OC"
measured_endpoint = "activity coefficient"
measured_result = 5.73

[[record]]
compound = "Cc1ccccc1C [1,2-dimethylbenzene] + CCn1cc[n+](C)c1.COP(=O)([O-])OC"
measured_endpoint = "activity coefficient"
measured_result = 9.3


// next entry
Ask | Give the measured activity coefficient of C1=CCCCC1 [cyclohexene] + CCn1cc[n+](C)c1.COP(=O)([O-])OC .
Reply | 18.7

---

The entries below come with measured activity coefficient values attached.
experiment: activity coefficient (dimensionless); of the first substance listed, at infinite dilution; xn = mol fraction of the nth substance listed; conditions: 343.15 K; 101.3 kPa; Liquid; Chromatography; x1 = 0
# output: bare number, no unit

[[record]]
molecule = "CCCCCCC [heptane] + COP(=O)([O-])OC.Cn1cc[n+](C)c1"
measured_endpoint = "activity coefficient"
measured_result = 243

[[record]]
molecule = "CCCCCC [hexane] + COP(=O)([O-])OC.Cn1cc[n+](C)c1"
measured_endpoint = "activity coefficient"
measured_result = 218

[[record]]
molecule = "CCCCCCCCC [nonane] + CCn1cc[n+](C)c1.COP(=O)([O-])OC"
measured_endpoint = "activity coefficient"
measured_result = 207

[[record]]
molecule = "CCCCC [pentane] + CCn1cc[n+](C)c1.COP(=O)([O-])OC"
measured_endpoint = "activity coefficient"
measured_result = 69.8


Ask | May I ask what activity coefficient has been recorded for C1=CCCCC1 [cyclohexene] + COP(=O)([O-])OC.Cn1cc[n+](C)c1 ?
Reply | 30.1

---

activity coefficient values by entry
experiment: activity coefficient (dimensionless); of the first substance listed, at infinite dilution; xn = mol fraction of the nth substance listed; details: 353.15 K; 101.3 kPa; Liquid; Chromatography; x1 = 0
Field format: numeric only.

Example cases with answers are listed next.
[[record]]
compound = "CC1CCCCC1 [methylcyclohexane] + CCn1cc[n+](C)c1.COP(=O)([O-])OC"
measured_result = 50.5

[[record]]
compound = "CCCCCCC [heptane] + COP(=O)([O-])OC.Cn1cc[n+](C)c1"
measured_result = 231

[[record]]
compound = "CCCCC [pentane] + COP(=O)([O-])OC.Cn1cc[n+](C)c1"
measured_result = 184

[[record]]
compound = "Cc1ccc(C)cc1 [1,4-dimethylbenzene] + CCn1cc[n+](C)c1.COP(=O)([O-])OC"
measured_result = 9.99

[[record]]
compound = "CCCCCCCCCC [decane] + COP(=O)([O-])OC.Cn1cc[n+](C)c1"
measured_result = 431


Ask | Entry under review: C1CCCCC1 [cyclohexane] + CCn1cc[n+](C)c1.COP(=O)([O-])OC . Reported activity coefficient?
Reply | 37.7

Ask | Ok, now Cc1ccccc1 [toluene] + COP(=O)([O-])OC.Cn1cc[n+](C)c1
Reply | 7.47

Ask | Same question, CCCCCC [hexane] + COP(=O)([O-])OC.Cn1cc[n+](C)c1 this time
Reply | 203

Ask | Now give it for C1CCCCC1 [cyclohexane] + COP(=O)([O-])OC.Cn1cc[n+](C)c1 too.
Reply | 48

Ask | Again, but for CC1CCCCC1 [methylcyclohexane] + COP(=O)([O-])OC.Cn1cc[n+](C)c1
Reply | 73
